Cited source: ChEMBL document CHEMBL2384925

subject.of.test: DNA (cytosine-5)-methyltransferase 1 (Homo sapiens) (UniProt P26358)
Sequence (P26358 whole entry): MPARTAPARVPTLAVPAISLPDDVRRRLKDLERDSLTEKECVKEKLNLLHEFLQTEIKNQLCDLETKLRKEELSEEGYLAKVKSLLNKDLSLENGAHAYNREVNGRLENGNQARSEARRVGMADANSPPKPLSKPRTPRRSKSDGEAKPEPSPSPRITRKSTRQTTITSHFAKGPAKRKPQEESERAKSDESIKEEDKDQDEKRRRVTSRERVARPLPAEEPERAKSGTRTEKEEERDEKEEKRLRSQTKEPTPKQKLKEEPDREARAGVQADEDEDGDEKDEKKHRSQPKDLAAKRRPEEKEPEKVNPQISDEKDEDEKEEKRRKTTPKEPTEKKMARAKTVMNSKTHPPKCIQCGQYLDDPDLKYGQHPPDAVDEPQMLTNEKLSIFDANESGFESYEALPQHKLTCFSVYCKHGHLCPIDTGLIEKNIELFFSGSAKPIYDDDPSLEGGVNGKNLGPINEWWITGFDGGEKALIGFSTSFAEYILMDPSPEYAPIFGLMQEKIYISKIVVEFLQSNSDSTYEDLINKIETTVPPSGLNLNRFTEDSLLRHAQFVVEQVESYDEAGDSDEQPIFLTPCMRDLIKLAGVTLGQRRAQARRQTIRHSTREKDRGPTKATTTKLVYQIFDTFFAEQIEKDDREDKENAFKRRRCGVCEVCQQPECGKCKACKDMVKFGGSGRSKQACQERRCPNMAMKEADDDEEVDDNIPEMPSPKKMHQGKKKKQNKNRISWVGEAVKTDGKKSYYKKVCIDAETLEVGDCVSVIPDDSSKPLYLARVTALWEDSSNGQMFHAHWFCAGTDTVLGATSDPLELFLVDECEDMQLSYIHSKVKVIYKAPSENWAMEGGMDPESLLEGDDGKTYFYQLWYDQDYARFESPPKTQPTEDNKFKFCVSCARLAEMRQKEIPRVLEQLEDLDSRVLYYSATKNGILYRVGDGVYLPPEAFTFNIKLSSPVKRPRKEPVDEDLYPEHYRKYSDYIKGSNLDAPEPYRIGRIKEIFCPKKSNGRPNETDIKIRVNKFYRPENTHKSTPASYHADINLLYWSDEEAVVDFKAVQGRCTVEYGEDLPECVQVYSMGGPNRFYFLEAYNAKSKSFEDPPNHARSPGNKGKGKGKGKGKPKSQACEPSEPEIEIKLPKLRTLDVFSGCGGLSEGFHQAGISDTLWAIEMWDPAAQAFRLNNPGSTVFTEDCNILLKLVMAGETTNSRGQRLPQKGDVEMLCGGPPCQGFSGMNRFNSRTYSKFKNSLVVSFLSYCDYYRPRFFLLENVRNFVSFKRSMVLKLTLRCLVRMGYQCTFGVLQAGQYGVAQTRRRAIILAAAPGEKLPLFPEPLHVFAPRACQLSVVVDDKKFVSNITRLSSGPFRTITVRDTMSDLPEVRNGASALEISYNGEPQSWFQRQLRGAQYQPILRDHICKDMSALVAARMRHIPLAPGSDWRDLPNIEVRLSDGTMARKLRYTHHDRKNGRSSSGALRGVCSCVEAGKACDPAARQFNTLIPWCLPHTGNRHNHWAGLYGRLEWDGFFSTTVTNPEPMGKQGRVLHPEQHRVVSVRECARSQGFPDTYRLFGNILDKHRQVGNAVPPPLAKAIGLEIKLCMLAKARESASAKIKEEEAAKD
experiment.notes: Inhibition of DNMT1 in human HCT116 cells at 5 uM after 24 hrs by Western blot analysis relative to control
Assay type: cell-based
details: HCT-116
readout.label: inhibition (%)
Reply with just the number (in %).

# inhibition lookup, item `C[n+]1ccc(Nc2ccc(C(=O)Nc3ccc(Nc4ccnc5ccccc45)cc3)cc2)cc1`
0

Any idea what its inhibition is? The compound is `Cc1cc(Nc2cccc(C(=O)Nc3ccc(Nc4ccnc5ccccc45)cc3)c2)nc(N)n1`
85

Please give the measured inhibition for this compound: `Cc1cc(Nc2ccc(C(=O)Nc3ccc(Nc4ccnc5ccccc45)cc3)cc2)nc(N)n1`
75

Requested read-out: inhibition. Entry: `C[n+]1ccc(Nc2cccc(C(=O)Nc3ccc(Nc4ccnc5ccccc45)cc3)c2)cc1`
80

Suppose we examine the compound `C/C(=N\N=C(N)N)c1ccc(C(=O)Nc2ccc(Nc3ccnc4ccc(N(C)C)cc34)cc2)cc1` ; what inhibition value has been reported?
34

----------
subject.of.test: DNA (cytosine-5)-methyltransferase 1 (Homo sapiens) (UniProt P26358)
experiment.notes: Inhibition of DNMT1 in human HCT116 cells at 5 uM after 24 hrs by Western blot analysis relative to control
Type: cell-based
details: HCT-116
Answer each item with its documented inhibition.
Number in %, nothing else.

Recorded inhibition of `C/C(=N\N=C(N)N)c1cccc(NC(=O)c2ccc(Nc3ccnc4ccc(N(C)C)cc34)cc2)c1` , please.
0

Using the record for `Cc1cc(Nc2ccc(NC(=O)c3ccc(Nc4ccnc5ccccc45)cc3)cc2)nc(N)n1` , report its inhibition.
97

Could you share which inhibition value was measured for `C[n+]1ccc(Nc2ccc(C(=O)Nc3ccc(Nc4ccnc5ccc(N)cc45)cc3)cc2)cc1` ?
0

Consider the compound shown here: `C/C(=N\N=C(N)N)c1cccc(C(=O)Nc2ccc(Nc3ccnc4ccc(N(C)C)cc34)cc2)c1` What is its recorded inhibition?
40

I have this compound here, `C[n+]1ccc(Nc2cccc(NC(=O)c3ccc(Nc4ccnc5ccccc45)cc3)c2)cc1` , and I need its recorded inhibition.
0

Reported inhibition for `C[n+]1ccc(Nc2ccc(NC(=O)c3ccc(Nc4ccnc5ccc(N)cc45)cc3)cc2)cc1` : what is it?
0

Could you tell me which inhibition is on file for `C[n+]1ccc(Nc2cccc(C(=O)Nc3ccc(Nc4ccnc5ccc(N)cc45)cc3)c2)cc1` ?
80

# query: inhibition of entry `C[n+]1ccc(Nc2ccc(NC(=O)c3ccc(Nc4ccnc5ccccc45)cc3)cc2)cc1`
0

Requested field: inhibition. Item: `CN(C)c1ccc2nccc(Nc3ccc(NC(=O)c4ccc(Nc5cc[n+](C)cc5)cc4)cc3)c2c1`
45

What measured inhibition goes with `CN(C)c1ccc2nccc(Nc3ccc(C(=O)Nc4cccc(Nc5cc[n+](C)cc5)c4)cc3)c2c1` ?
0

What inhibition value was documented for this compound, `CN(C)c1ccc2nccc(Nc3ccc(NC(=O)c4cccc(Nc5cc[n+](C)cc5)c4)cc3)c2c1` ?
75

Value lookup for inhibition; key = `Cc1cc(Nc2ccc(NC(=O)c3ccc(Nc4ccnc5ccc(N(C)C)cc45)cc3)cc2)nc(N)n1`
43

Reported inhibition, compound `Cc1cc(Nc2ccc(NC(=O)c3ccc(Nc4ccnc5ccc(Cl)cc45)cc3)cc2)nc(N)n1` : ____
30

Data request, read-out inhibition, for `Cc1cc(Nc2ccc(NC(=O)c3ccc(Nc4ccnc5c(F)c(F)c(F)cc45)cc3)cc2)nc(N)n1`
18

Param item = `C[n+]1ccc(Nc2cccc(NC(=O)c3ccc(Nc4ccnc5ccc(N)cc45)cc3)c2)cc1` ; retrieve measured inhibition.
2

Given `C/C(=N\N=C(N)N)c1ccc(NC(=O)c2ccc(Nc3ccnc4ccc(N(C)C)cc34)cc2)cc1` , state its recorded inhibition.
30

Quick one: inhibition of `CN(C)c1ccc2nccc(Nc3ccc(C(=O)Nc4ccc(Nc5cc[n+](C)cc5)cc4)cc3)c2c1` ?
16
